# testSystem: γ-secretase (cleavage of Notch) (Homo sapiens)
# Construct: endogenous in cells; host or cells: U2OS luciferase reporter cells with Tet-on Notch
# methodDescription: Notch cellular assay (luciferase reporter U2OS cells)
# Type: cell-based
# runParameters: U2OS luciferase reporter cells
valueType: pIC50
Answers are plain numbers, as −log10 of the molar value.

Consider the worked cases shown below.
CC1CCCC(N(Cc2ccc(C(=O)N[C@H](C)CO)cc2)S(=O)(=O)c2ccc(Cl)cc2)C1 (some centres unmarked)    4.97
CC1CCCCC1N(Cc1ccc(C(=O)NCCO)cc1)S(=O)(=O)c1ccc(Cl)cc1 (centres unmarked)    6.00
O=C(O)c1ccc(CN(C2CCCCC2F)S(=O)(=O)c2ccc(Cl)cc2)cc1 (centres unmarked) [Example 57]    4.54
O=C(O)c1ccc(CN(C2CCCC(C(F)(F)F)C2)S(=O)(=O)c2ccc(Cl)cc2)cc1 (centres unmarked)    5.49
CC1CCCCC1N(Cc1ccc(C(=O)N[C@@H](C)CO)cc1)S(=O)(=O)c1ccc(Cl)cc1 (some centres unmarked)    5.64
CC1CCCCC1N(Cc1ccc(C(=O)NCC(F)(F)F)cc1)S(=O)(=O)c1ccc(Cl)cc1 (centres unmarked)    6.24
CC[C@@H](C1CCCCC1)N(Cc1ccc(C(=O)O)cc1)S(=O)(=O)c1ccc(Cl)cc1    4.70

For the next question, use this molecule.
Record CC1CCCCC1N(Cc1ccc(C(=O)O)cc1)S(=O)(=O)c1ccc(C(F)(F)F)nc1 (centres unmarked) , field pIC50: 5.32

---

# testSystem: T1, γ-secretase (Notch cleavage activity) (Homo sapiens, UniProt P49768)
# T1 construct: endogenous in cells; host or cells: SUP-T1 cells
# methodDescription: Cleaved Notch1 Sandwich ELISA (SUP-T1 cell line)
# Type: cell-based
# runParameters: ratio Notch Elisa IC50 to Aβ42 IC50
Threshold check on Notch Elisa/Aβ42: strictly below 200 is 1 (yes); on or above 200 is 0 (no).

Take the molecule CC1CCCCC1N(Cc1ccc(C(=O)O)cc1)S(=O)(=O)c1ccc(Cl)nc1 (centres unmarked) [Example 44] and say whether its Notch Elisa/Aβ42 is less than 200.
0 (no)

---

# testSystem: T1, γ-secretase (cleavage of APP, Aβ42) (Homo sapiens, UniProt P49768)
# T1 construct: endogenous in cells
# methodDescription: Aβ (1-42) cellular assay (Aβ ELISA, HEK AP-GL-T1 6 cells)
# runParameters: cellular Aβ42 ELISA, 24 h compound treatment
valueType: IC50 (nM)
Answers are plain numbers, in nM.

Consider the worked cases shown below.
CC1CCCC(N(Cc2ccc(C(=O)O)cc2)S(=O)(=O)c2ccc(Cl)cc2)C1 (stereo not drawn)    148
CC[C@@H](C1CCCC1)N(Cc1ccc(C(=O)O)cc1)S(=O)(=O)c1ccc(Cl)cc1    50
COC[C@@H](C)NC(=O)c1ccc(CN(C2CCCCC2C)S(=O)(=O)c2ccc(Cl)cc2)cc1 (stereo partly drawn) [Example 14]    0.7
CC1CCCCC1N(Cc1ccc(C(=O)NCCO)cc1)S(=O)(=O)c1ccc(Cl)cc1 (stereo not drawn)    0.83
CC1CCCC(N(Cc2ccc(C(=O)N[C@H](C)CO)cc2)S(=O)(=O)c2ccc(Cl)cc2)C1 (stereo partly drawn)    7.32
COC[C@@H](C)NC(=O)c1ccc(CN(C2CCCCC2F)S(=O)(=O)c2ccc(Cl)cc2)cc1 (stereo partly drawn)    7.31
O=C(NCCO)c1ccc(CN(C2CCCCC2F)S(=O)(=O)c2ccc(Cl)cc2)cc1 (stereo not drawn)    10.3
CC[C@@H](C1CCCCC1)N(Cc1ccc(C(=O)O)cc1)S(=O)(=O)c1ccc(Cl)cc1    28

For the next question, use this compound.
The reported IC50 value, T1, γ-secretase (cleavage of APP, Aβ42) (Homo sapiens, UniProt P49768), for C[C@H](CO)NC(=O)c1ccc(CN(C2CCCCC2F)S(=O)(=O)c2ccc(Cl)nc2)cc1 (stereo partly drawn) reads 13.7

---

Assignment: determine reported pIC50 for the given compounds.
# testSystem: T1, γ-secretase (Notch cleavage activity) (Homo sapiens, UniProt P49768)
# T1 construct: endogenous in cells
# methodDescription: Cleaved Notch1 Sandwich ELISA (SUP-T1 cell line)
# runParameters: SUP-T1 cells, 16 h
# Description: Cleaved Notch1 Sandwich ELISA. This assay was used to determine if the compounds of interest inhibit the Notch cleavage activity of γ-secretase in SUP-T1 cell line, which endogenously expresses a truncated Notch receptor fragment that is a viable gamma-secretase substrate. The base medium for this cell line is ATCC-formulated RPMI-1640 Medium with fetal bovine serum to a final concentration of 10%. […]
Give bare numbers, as −log10 of the molar value.

C[C@H](CO)NC(=O)c1ccc(CN(C2CCCCC2F)S(=O)(=O)c2ccc(Cl)nc2)cc1 (some centres unmarked)    5.94
CC1CCCCC1N(Cc1ccc(C#N)cc1)S(=O)(=O)c1ccc(Cl)cc1 (centres unmarked)    6.06

Lab note: each compound below needs its pIC50 filled in.
1. O=C(O)c1ccc(CN(C2CCCC(C(F)(F)F)C2)S(=O)(=O)c2ccc(Cl)cc2)cc1 (single isomer, unassigned) [Example 52]
2. CC1CCCC(N(Cc2ccc(C(=O)N[C@H](C)CO)cc2)S(=O)(=O)c2ccc(Cl)cc2)C1 (some centres unmarked)
3. CN(C)CCNC(=O)c1ccc(CN(C2CCCCC2F)S(=O)(=O)c2ccc(Cl)cc2)cc1 (centres unmarked)
4. COC(=O)c1ccc(CN([C@@H]2CCCC[C@H]2F)S(=O)(=O)c2ccc(Cl)cc2)cc1
5. CC1CCCCC1N(Cc1ccc(C(=O)O)cc1)S(=O)(=O)c1ccc(Cl)cc1 (centres unmarked)
6. C[C@@H](CO)NC(=O)c1ccc(CN(C2CCCCC2C(F)(F)F)S(=O)(=O)c2ccc(Cl)cc2)cc1 (some centres unmarked)
7. CC1CCCCC1N(Cc1ccc(C(=O)NCCO)cc1)S(=O)(=O)c1ccc(Cl)cc1 (centres unmarked)
8. O=C(O)c1ccc(CN(C2CCCCC2F)S(=O)(=O)c2ccc(Cl)nc2)cc1 (centres unmarked)

1. 5.73
2. 5.67
3. 5.00
4. 5.80
5. 6.46
6. 7.03
7. 6.89
8. 5.28

Lab note: each compound below needs its pIC50 filled in.
1. O=C(O)c1ccc(CN(C2CCCCC2(F)F)S(=O)(=O)c2ccc(Cl)cc2)cc1 (centres unmarked)
2. O=C(O)c1ccc(CN(C2CCCCC2F)S(=O)(=O)c2ccc(Cl)cc2)cc1 (single isomer, unassigned) [Example 58]

1. 5.30
2. 5.00

---

valueType: melting point

Consider the worked cases shown below.
CSc1ccc(CN(C2CCOCC2)S(=O)(=O)c2ccc(Cl)cc2)cc1    124 to 127 °C
O=C(O)c1ccc(CN(CC2CCOCC2)S(=O)(=O)c2ccc(Cl)cc2)cc1    188 to 190 °C
COC(=O)c1ccc(CN(CC2CCOCC2)S(=O)(=O)c2ccc(Cl)cc2)cc1    115 to 117 °C
Cc1ccc(S(=O)(=O)N(Cc2ccc(C#N)cc2F)C2CCC2)cc1    146 to 147 °C
N#Cc1ccc(CN(C2CCCC2)S(=O)(=O)c2ccc(Cl)cc2)c(F)c1    176 to 177 °C
O=C(O)c1ccc(CN(C2CCCCC2Cl)S(=O)(=O)c2ccc(Cl)cc2)cc1 (stereo not drawn)    158 to 160 °C
O=C(O)c1ccc(CN(C2CCCCC2O)S(=O)(=O)c2ccc(Cl)cc2)c(F)c1F (stereo not drawn)    134 to 136 °C
O=C(O)c1ccc(CN(C2CCCCC2O)S(=O)(=O)c2ccc(Cl)cc2)cc1 (stereo not drawn)    218 to 219 °C

Lab note: each compound below needs its melting point filled in.
1. O=C(O)c1ccc(CN(C2CCCCC2)S(=O)(=O)c2ccc(F)cc2)cc1
2. COC(=O)c1ccc(CN([C@H]2CCCC[C@@H]2O)S(=O)(=O)c2ccc(Cl)cc2)cc1
3. N#Cc1ccc(CN(C2CCC2)S(=O)(=O)c2ccc(Cl)cc2)c(F)c1
4. COc1ccc(CN(CC2CCOCC2)S(=O)(=O)c2ccc(Cl)cc2)cc1C(=O)O
5. O=C(O)c1ccc(CN(C2CCCCC2)S(=O)(=O)c2ccc(Cl)cc2)c(F)c1F

1: 218 to 220 °C; 2: 150 to 152 °C; 3: 125 to 127 °C; 4: 158 to 159 °C; 5: 111 to 112 °C

---

Assignment: determine reported Notch Elisa/Aβ42 for the given compounds.
# testSystem: T1, γ-secretase (Notch cleavage activity) (Homo sapiens, UniProt P49768)
# T1 construct: endogenous in cells; host or cells: SUP-T1 cells
# methodDescription: Cleaved Notch1 Sandwich ELISA (SUP-T1 cell line)
# Assay type: cell-based
# runParameters: ratio Notch Elisa IC50 to Aβ42 IC50
Structures can show the parent of a compound that is named as a salt.

Consider the worked cases shown below.
O=C(O)c1ccc(CN(C2CCCCC2)S(=O)(=O)c2ccc(Cl)cc2)cc1    243
O=C(O)c1ccc(CN(C2CCCCC2F)S(=O)(=O)c2ccc(Cl)cc2)c(F)c1F (stereo not shown)    73
O=C(O)c1ccc(CN(C2CCCCC2F)S(=O)(=O)c2ccc(Cl)nc2)cc1 (stereo not shown)    26
CC1CCCCC1N(Cc1ccc(C(=O)NCCN(C)C)cc1)S(=O)(=O)c1ccc(Cl)cc1 (stereo not shown) [Example 41, hydrochloride]    91
COC(=O)c1ccc(CN([C@@H]2CCCC[C@H]2F)S(=O)(=O)c2ccc(Cl)cc2)cc1    35

Lab note: each compound below needs its Notch Elisa/Aβ42 filled in.
1. CC1CCCCC1N(Cc1ccc(C(=O)O)cc1)S(=O)(=O)c1ccc(Cl)cc1 (stereo not shown)
2. CC1CCCCC1N(Cc1ccc(C(=O)NCCN2CCCC2)cc1)S(=O)(=O)c1ccc(Cl)cc1 (stereo not shown)
3. C[C@H](O)CNC(=O)c1ccc(CN(C2CCCCC2F)S(=O)(=O)c2ccc(Cl)cc2)cc1 (stereo partly shown)
4. CC1CCCC(N(Cc2ccc(C(=O)O)cc2)S(=O)(=O)c2ccc(Cl)cc2)C1 (stereo not shown)
5. CC1CCCCC1N(Cc1ccc(C#N)cc1)S(=O)(=O)c1ccc(Cl)cc1 (stereo not shown)
6. CC1CCCCC1N(Cc1ccc(C(=O)N[C@H](C)CO)cc1)S(=O)(=O)c1ccc(Cl)cc1 (stereo partly shown)

[45, 64, 106, 19, 63, 188]

Lab note: each compound below needs its Notch Elisa/Aβ42 filled in.
1. CC1CCCC(N(Cc2ccc(C(=O)N[C@H](C)CO)cc2)S(=O)(=O)c2ccc(Cl)cc2)C1 (stereo partly shown)
2. CCN(CCN1CCCC1)C(=O)c1ccc(CN(C2CCCCC2C)S(=O)(=O)c2ccc(Cl)cc2)cc1 (stereo not shown)
3. CC1CCCCC1N(Cc1ccc(C(=O)NC[C@H](C)O)cc1)S(=O)(=O)c1ccc(Cl)cc1 (stereo partly shown)

[309, 38, 401]

Lab note: each compound below needs its Notch Elisa/Aβ42 filled in.
1. CC1CCCCC1N(Cc1ccc(C(=O)N[C@@H](C)CO)cc1)S(=O)(=O)c1ccc(Cl)cc1 (stereo partly shown)
2. O=C(NCCO)c1ccc(CN(C2CCCCC2F)S(=O)(=O)c2ccc(Cl)cc2)cc1 (stereo not shown)

1. 110
2. 134
